Where do the numbers come from? From PubChem BioAssay AID1159580.

Test: chemical genetic growth profiling, strain panel (AID 1159580);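 note: tested at 20 µM; growth read once vehicle control cultures reached saturation at 30 °C; 1 = growth at the plate median or of vehicle wells; lower values mean less growth of the strain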
Conditions: S. cerevisiae deletion strains, growth OD, locus YNL248C, strain rpa49, active compounds read low
Hit rate of the full screen: of about 5,500 compounds, about 2,000 (36%) were called active. Another 18% or so got no clear call; they are omitted. The list shows a part of the results.
Catalogue of molecules with associated normalized growth
Quick one: just the number, no unit, thanks!

Here's what some known entries look like.
Molecule: Cn1c(=O)c2c(ncn2C)n(C)c1=O
normalized growth: 1.03
--
Molecule: COc1cc2c(cc1OC)C(C)NCC2 (centres undefined)
normalized growth: 0.955
--
Molecule: CC(=CC1CCC(C)C2CCC(C)=C12)C(=O)O (centres undefined)
normalized growth: 0.972
--
Molecule: Cn1c(=O)[nH]c2nc[nH]c2c1=O
normalized growth: 1.01
--
Molecule: NS(=O)(=O)c1cc2c(cc1Cl)NCNS2(=O)=O
normalized growth: 1.01
--
Molecule: CC(=O)CCCCn1c(=O)c2c(ncn2C)n(C)c1=O
normalized growth: 1.01

// CC(C)C1CCC(C(=O)N[C@@H](Cc2ccccc2)C(=O)O)CC1 (some centres undefined) : normalized growth value = 0.976

normalized growth for COc1ccccc1OCC(O)COC(N)=O (centres undefined) is 0.985

response.value for CC(=CC1CCC(C)C2C1=C(C)CC2O)C(=O)O (centres undefined) (field: normalized growth) = 1.07

###

Test: chemical genetic growth profiling, strain panel (AID 1159580);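 note: tested at 20 µM; growth read once vehicle control cultures reached saturation at 30 °C; 1 = growth at the plate median or of vehicle wells; lower values mean less growth of the strain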
Conditions: S. cerevisiae deletion strains, growth OD, locus YLR058C, strain SHM2, active compounds read low
The whole screen tested about 5,500 compounds, of which about 2,000 (36%) were called active. Another 18% or so got no clear call; they are omitted. The list shows a part of the results.
Property measured: normalized growth
Answer using only a numeral; do not append any unit.

Completed entries (count: 4):
Compound: CN1CCCCC1c1ccc(-c2cccnc2)nc1 (stereo not given)
Property measured: normalized growth
Reported value: 1.02
--
Compound: COC1=CC23CCCN2CCc2cc4c(cc2C3C1O)OCO4 (stereo not given)
Property measured: normalized growth
Reported value: 1
--
Compound: CCC[C@@H]1C[C@@H](C(=O)N[C@H]([C@H]2O[C@H](SC)[C@H](O)[C@@H](O)[C@H]2O)[C@H](C)O)N(C)C1
Property measured: normalized growth
Reported value: 0.977
--
Compound: COC(=O)C[C@H]1C(C)(C)[C@H](O)[C@@H]2CC3=C4CC(O)O[C@@H](c5ccoc5)[C@]4(C)CCC3[C@@]1(C)C2=O (stereo not given in full)
Property measured: normalized growth
Reported value: 0.975

Read the next record carefully.
Documented normalized growth of C=C[C@H]1CN2CC[C@H]1C[C@H]2[C@H](O)c1ccnc2ccccc12 : 1

###

Assay: chemical genetic growth profiling, strain panel (AID 1159580);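 note: tested at 20 µM; growth read once vehicle control cultures reached saturation at 30 °C; 1 = growth at the plate median or of vehicle wells; lower values mean less growth of the strain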
Conditions: S. cerevisiae deletion strains, growth OD, locus YFR010W, strain ubp6
The campaign covered roughly 5,500 compounds. About 2,000 (36%) were called active. Another 18% or so got no clear call; they are omitted. Rule as the data show it: active = normalized growth mostly below about 0.91 (no sharp cut-off); inconclusive = no clear call, values can overlap the other calls; inactive = mostly above about 0.92. Some of the results follow.
// classify into active, inactive

Please review the following examples before continuing.
Compound: NC(=NCCCCCCN=C(N)N=C(N)Nc1ccc(Cl)cc1)N=C(N)Nc1ccc(Cl)cc1
Class name: active

Compound: O=C(N[C@@H](CO)[C@H](O)c1ccc([N+](=O)[O-])cc1)C(Cl)Cl
Class name: inactive

Compound: CC(=O)NC1C(O)OC(COS(=O)(=O)O)C(OC2OC(C(=O)O)C(OC3OC(CO)C(OC4OC(C(=O)O)C(O)C(O)C4OS(=O)(=O)O)C(OS(=O)(=O)O)C3NS(=O)(=O)O)C(O)C2OS(=O)(=O)O)C1O (stereo not given)
Class name: inactive

Compound: O=C1C=CC(=O)c2c(O)cccc21
Class name: inactive

Compound: CC(C)[C@@H]1CC[C@@H](C)CC1=O
Class name: inactive

Compound: O=C1c2cccc(O)c2C(=O)c2c(O)cccc21
Class name: active

Identify the outcome logged in this assay for the compound shown: CN1CCN(C2=Nc3cc(Cl)ccc3Nc3ccccc32)CC1 inactive

Dear colleague, could you share the recorded outcome for COc1cc(Cc2cnc(N)nc2N)cc(OC)c1OC when you have a moment? inactive

Write down the call the test reported for this compound. Item: CCCCCCCCCCCCCCCC(=O)OC[C@H](NC(=O)C(Cl)Cl)[C@H](O)c1ccc([N+](=O)[O-])cc1 inactive

What did the test return for COc1ccccc1OCC(O)COC(N)=O (stereo not given) ? inactive
